Cited source: the supplement of paper PMC7877785

experiment: self-splicing fitness, log relative to wild type (ln ratio); higher = more splicing; Tetrahymena group I intron in knt gene, E. coli kanamycin selection, DiMSum; sequences stand for … in CUCUCU…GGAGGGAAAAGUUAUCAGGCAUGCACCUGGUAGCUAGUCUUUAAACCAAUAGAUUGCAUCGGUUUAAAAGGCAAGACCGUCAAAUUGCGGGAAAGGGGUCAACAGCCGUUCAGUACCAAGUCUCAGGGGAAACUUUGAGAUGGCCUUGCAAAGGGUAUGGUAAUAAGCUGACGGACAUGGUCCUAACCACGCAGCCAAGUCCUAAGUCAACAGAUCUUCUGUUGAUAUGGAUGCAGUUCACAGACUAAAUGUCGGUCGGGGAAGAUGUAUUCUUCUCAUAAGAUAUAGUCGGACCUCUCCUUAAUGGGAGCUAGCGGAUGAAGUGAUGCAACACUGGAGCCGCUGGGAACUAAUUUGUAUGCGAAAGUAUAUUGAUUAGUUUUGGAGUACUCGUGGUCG; conditions: 37 °C;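 also: selection with 25 µg/mL kanamycin versus none on LB agar overnight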
Entry flag: Criterion met if self-splicing fitness (ln) reaches -1; Criterion not met if it does not.

Some solved entries appear below for comparison.
Prompt: self-splicing fitness (ln) >= -1 for UAAAAGCAAUAUUACGCGGC ?
Response: Criterion not met

Prompt: self-splicing fitness (ln) >= -1 for AUUCAGCAAUAUUACGCUGU ?
Response: Criterion not met

Prompt: self-splicing fitness (ln) >= -1 for GCCUAGCAAUAUUACGUGGA ?
Response: Criterion met

Consider the record given below.
Prompt: self-splicing fitness (ln) >= -1 for UCCUAGCAAUAUUACGUUGG ?
Response: Criterion not met
